Biological target: T1, P991_AMBCA (Amblyomma cajennense, UniProt A0A023FFD0 29-136)
T1 construct: His-tagged in BLI
T1 sequence: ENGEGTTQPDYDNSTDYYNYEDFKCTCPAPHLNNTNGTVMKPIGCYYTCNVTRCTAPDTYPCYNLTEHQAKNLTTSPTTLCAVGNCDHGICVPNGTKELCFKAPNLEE
Experiment: BLI
attribute-measured: pKd
Give bare numbers, as −log10 of the molar value.

Return reported pKd values for all items listed beneath this line.
1. CCL24_HUMAN (ligand) VVIPSPCCMFFVSKRIPENRVVSYQLSSRSTCLKAGVIFTTKKGQQFCGDPKQEWVQRYMKNLDAKQKKASPRARAVA
2. CCL22_HUMAN (ligand) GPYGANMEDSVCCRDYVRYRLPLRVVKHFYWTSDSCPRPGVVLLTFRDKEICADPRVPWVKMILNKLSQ
3. CCL23_HUMAN (ligand) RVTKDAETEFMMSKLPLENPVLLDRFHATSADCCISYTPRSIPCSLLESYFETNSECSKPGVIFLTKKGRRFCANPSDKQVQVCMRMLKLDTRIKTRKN
4. CCL27_HUMAN (ligand) FLLPPSTACCTQLYRKPLSDKLLRKVIQVELQEADGDCHLQAFVLHLAQRSICIHPQNPSLSQWFEHQERKLHGTLPKLNFGMLRKMG

A:
1: 8.18; 2: 8.40; 3: 8.25; 4: 7.41
